# System: DU-145 prostate
# Assay comment: NCI-60 one-dose screen, 48 h
# Condition label: 10 µM unless noted
About 83,000 compounds went through this panel and 20% of them were active in at least one assay; those are over-represented in the sample as a whole. Active and inactive are the calls of the source. The calls were made as follows: active = growth percent below 10; inactive = the rest.
Thanks in advance; please answer with one of these: class 1 for active, class 0 for inactive

Called result for "Nc1nc(=O)c2ccccc2s1"
class 0

Check the results log: what was the call for "Brc1cccc(-c2cc(-c3ccc4c(c3)OCCCO4)[nH]n2)c1" ?
class 0

Look up the recorded call for CN(C)c1ncnc2c1ccn2C1OC(CO)C(O)C1O (stereo not drawn) in this test.
class 1

Check the results log: what was the call for "CCCCCCCCN(CCCCCCCC)CCCCCCNc1cc(OC)cc2cccnc12" ?
class 0

So what was the verdict on "O=C(O)COc1ccc(-c2cssc2=S)cc1" in this test?
class 0

Tell me the recorded outcome of this test for "Nc1ccc(C(=O)CSc2nc3ccccc3[nH]2)cc1" .
class 0

Outcome logged for "O=C(O)c1cn(C2CC2)c2cc(N3CCN(C(=O)/C=C/c4ccc(Cl)cc4)CC3)c(F)cc2c1=O" in this assay:
class 0

What classification did "O=C1Nc2ccc3c(c2/C1=C\c1cc2c(cc1Br)OCO2)OCO3" end up with in this test?
class 1

Recorded call for COc1ccc(C2C=C(c3ccc(N)cc3)N=C3SC=CN32)cc1OC (stereo not drawn) ?
class 0

Fill in: this test's call for "CCN(CC)CCOc1ccc(Cl)c(C)c1" is ___
class 0

Test call for this compound, please: "O=C(Nc1ccncc1)C(=O)c1cn(S(=O)(=O)c2ccc(Br)cc2)c2ccccc12"
class 0

What is the recorded call for this compound in the test? "COc1ccc(-c2ccc(C)n2-c2ccc(-c3nc4cc(Cl)ccc4s3)cc2)cc1"
class 0

What did the test return for CC(NNC(C)c1ccccc1)c1ccccc1 (stereo not drawn) ?
class 0

Give the logged outcome of this assay for the following compound: "CC1=NC2=CC=CC3=NC(C(Cl)(Cl)Cl)=NC(=N1)N23"
class 0

// outcome(item) with item = "COc1ccc(-c2c(N)n[nH]c2-c2cc(OC)c3c(c2)OCCO3)cc1"
class 0

In this assay, the call recorded for "Cc1ccc(S(=O)(=O)NCCNc2nccc(-c3c(-c4ccc(O)cc4)nc4sccn34)n2)cc1" was what?
class 0

What did the test return for "COc1ccc(S(=O)(=O)n2cc(C(=O)C(=O)Nc3ccncc3)c3ccccc32)cc1F" ?
class 0

What did the test return for COc1cc(C2CC(c3ccc4c(c3)OCO4)=NN2C(C)=O)cc(OC)c1OC (stereo not drawn) ?
class 0

Check the results log: what was the call for "Clc1cc(Cl)c2nc(-c3ccc(-c4ccc(/C=N/NC5=NCCN5)cc4)s3)cn2c1" ?
class 0

Hi, do you know how CC12CCCC(CC(=O)c3[nH]c4ccccc4c31)C2 (stereo not drawn) came out in this test?
class 1

Called result for "Cn1ccc(Nc2nccc(Oc3ccc(C(=O)Nc4cccc(F)c4)c(Cl)c3)n2)c1"
class 0

Assay result, entry "O=[N+]([O-])c1ccc(Sc2ncccn2)c([N+](=O)[O-])c1" — outcome?
class 0

Could you check what this test reported for "COc1ccc(N2CCN(Cc3cc(C(=O)/C=C/c4c[nH]c5ccccc45)ccc3O)CC2)cc1" ?
class 0

Identify the outcome logged in this assay for the compound shown: "COc1ccc(-c2ccc(-c3ccc(-c4ccc(C(=N)N)cc4)s3)s2)cc1OC"
class 0

Dear all, I need the recorded test outcome for "C=C(C)[C@@H]1C[C@H](O)Cc2cc(F)ccc2N1" , thank you.
class 0

Field: outcome | Entry: O=C(O)C1CCCCN1c1nc(Cl)nc(Cl)n1 (stereo not drawn)
class 0

Outcome logged for "COc1ccc(/C=C2\N=C(c3ccccc3)N(C(=O)c3ccccc3O)NC2=O)cc1" in this assay:
class 0

Query: recorded result category for "c1coc(CNc2ccnc(Nc3ccc(OCCN4CCCCC4)cc3)n2)c1" in this test
class 0

Could you check what this test reported for O=S1(=O)CCC(N(/N=C/c2ccco2)c2ccccc2)C1 (stereo not drawn) ?
class 0

Given CCC(=O)OC1=CN2C(=NC(c3ccc(N)cc3)=CC2c2cc(OC)c(OC)c(OC)c2)S1 (stereo not drawn) , state the outcome it received in this test.
class 1

Hey, what did the test say about "CCCCOc1ccc(/C=C2/SC(N3CCCC3)=NC2=O)cc1" ?
class 0

Given C=C1CCC2C3(C)COC(c4c(OC)cccc4OC)OC3CCC2(C)C1C/C=C1/C(=O)OCC1O (stereo not drawn) , state the outcome it received in this test.
class 0

Tell me the assay call for "CCn1c2ccccc2c2cc(NC(=O)Nc3ccc([N+](=O)[O-])cc3C)ccc21" please.
class 0

Query: recorded result category for "Cc1ccc(NS(=O)(=O)c2cc(C)ccc2C)cc1" in this test
class 0

Please indicate how the test categorized "CCN(CC)c1ccc2[nH]c3c(C(N)=O)cc(=O)c(=O)c=3oc2c1" .
class 1

Per the records of this test, what outcome belongs to "COc1cc(/C=C/C(=O)c2ccc(Nc3ncnc4cc(OC)c(OC)cc34)cc2)cc(OC)c1" ?
class 0

Each compound tested received a call. Report the one for COc1ccc(C2C=C(c3ccc(Cl)cc3)N=C3SC=C(C)N32)c(Br)c1 (stereo not drawn) .
class 1

Outcome? "CCCN=C1NC(=O)/C(=C/c2nc(-c3ccc(OC)cc3)n3ccccc23)S1"
class 0

Per the assay record, what outcome was assigned to "C[n+]1c(/C=C/c2c(O)ccc3ccccc23)ccc2ccccc21" ?
class 0

Record request — test call for "COc1ccc(C(=O)N2NC(=O)/C(=C/c3ccc(F)cc3)N=C2c2ccccc2)cc1"
class 0

# fetch the recorded call for "CCC(=O)Oc1ccc(/C(=C(/C)Cc2cccc(OC)c2)c2ccc(OCCN(C)C)cc2)cc1" here
class 0

Assay outcome for "O=[N+]([O-])c1cnc(Sc2ccncn2)s1" : what was it?
class 1

For "Cn1c(=O)cc(NC(=O)CN2CCN(c3cc4c(cc3F)c(=O)c(C(=O)O)cn4C3CC3)CC2)[nH]c1=O" , which call appears in the assay record?
class 0
